molecular target: T1, human MSLN-R3 protein (Met487-Ser606 of NCBI AAH09272.1) expressed on HEK293T-hMSLN-R3 cells (human, UniProt Q13421 487-606); assay: FACS on HEK293T-hMSLN-R3 cells;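 also: flow cytometry binding of test chimeric antibodies to cells after 2 h incubation on ice, with values derived from the mean fluorescence intensity of the cells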
T1 construct: also called Region3
T1 sequence (Q13421 495-614): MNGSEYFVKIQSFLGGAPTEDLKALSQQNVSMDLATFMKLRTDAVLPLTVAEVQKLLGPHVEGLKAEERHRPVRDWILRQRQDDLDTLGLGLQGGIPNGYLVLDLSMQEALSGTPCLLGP
Listed below: Maximum mean fluorescence intensity values for each entry.
Response field accepts a number only; no unit should be typed.

Here is how some binders turned out for Maximum mean fluorescence intensity.
S009-F7.6.17 (antibody, human IgG1, kappa, V domains shown, human-murine chimeric antibody, human IgG1/kappa constant regions) VH: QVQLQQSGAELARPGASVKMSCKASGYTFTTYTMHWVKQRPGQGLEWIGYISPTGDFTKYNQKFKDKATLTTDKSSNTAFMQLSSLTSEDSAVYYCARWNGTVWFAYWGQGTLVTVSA VL: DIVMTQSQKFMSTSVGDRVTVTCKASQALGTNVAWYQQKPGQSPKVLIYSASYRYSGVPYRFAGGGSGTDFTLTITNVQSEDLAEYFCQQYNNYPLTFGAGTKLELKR : 6420
S009-F7.12.13 (antibody, human IgG1, kappa, V domains shown, human-murine chimeric antibody, human IgG1/kappa constant regions) VH: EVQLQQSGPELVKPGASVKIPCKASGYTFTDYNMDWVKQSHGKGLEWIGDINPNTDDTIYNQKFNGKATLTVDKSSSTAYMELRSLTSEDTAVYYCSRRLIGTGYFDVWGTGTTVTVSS VL: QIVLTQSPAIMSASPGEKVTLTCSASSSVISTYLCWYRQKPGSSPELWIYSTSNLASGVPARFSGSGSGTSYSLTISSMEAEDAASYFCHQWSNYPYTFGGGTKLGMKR : 6610
S009-F7.66.12 (antibody, human IgG1, kappa, V domains shown, human-murine chimeric antibody, human IgG1/kappa constant regions) VH: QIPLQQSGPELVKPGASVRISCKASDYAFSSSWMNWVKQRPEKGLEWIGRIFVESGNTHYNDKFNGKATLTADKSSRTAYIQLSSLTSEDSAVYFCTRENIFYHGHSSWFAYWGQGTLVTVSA VL: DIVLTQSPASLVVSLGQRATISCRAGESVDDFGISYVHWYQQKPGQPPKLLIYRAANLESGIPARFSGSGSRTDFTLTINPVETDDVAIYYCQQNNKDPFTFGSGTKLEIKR : 5900
S009-F7.26.15 (antibody, human IgG1, kappa, V domains shown, human-murine chimeric antibody, human IgG1/kappa constant regions) VH: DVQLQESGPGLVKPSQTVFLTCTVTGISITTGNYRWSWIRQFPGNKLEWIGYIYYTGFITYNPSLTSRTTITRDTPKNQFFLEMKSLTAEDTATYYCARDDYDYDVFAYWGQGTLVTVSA VL: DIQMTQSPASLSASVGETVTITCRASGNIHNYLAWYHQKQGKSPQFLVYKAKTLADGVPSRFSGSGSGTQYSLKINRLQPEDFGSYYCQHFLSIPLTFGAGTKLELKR : 6940

Next up:
Please look at this binder and report its Maximum mean fluorescence intensity: S009-F7.30.5 (antibody, human IgG1, kappa, V domains shown, human-murine chimeric antibody, human IgG1/kappa constant regions) VH: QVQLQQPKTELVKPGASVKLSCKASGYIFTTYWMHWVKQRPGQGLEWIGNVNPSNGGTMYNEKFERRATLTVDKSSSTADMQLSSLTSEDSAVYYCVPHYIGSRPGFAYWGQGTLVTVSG VL: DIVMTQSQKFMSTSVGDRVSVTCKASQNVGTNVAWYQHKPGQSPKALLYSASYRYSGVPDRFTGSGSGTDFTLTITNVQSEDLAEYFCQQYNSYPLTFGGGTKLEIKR
6160

Values were extracted from patent US20250250357A1.
